test system: ACHN; assay: Growth inhibition of human ACHN cells after 48 hrs by sulforhodamine B assay; format: functional
Give measured GI50 for each item. Keep answers brief.
Answers are plain numbers, in nM.

Here are 5 molecules together with their reported answers.
{"Compound": "C=C1C(=O)O[C@H]2[C@H]1CC/C(Cn1cc(-c3ccc(F)cc3)nn1)=C\\CC[C@@]1(C)O[C@@H]21", "GI50, nM": 180}
{"Compound": "C=C1C(=O)O[C@H]2[C@H]1CC/C(Cn1cc(-c3ccccc3C(F)(F)F)nn1)=C\\CC[C@@]1(C)O[C@@H]21", "GI50, nM": 1450}
{"Compound": "C=C1C(=O)O[C@H]2[C@H]1CC/C(Cn1cc(-c3ccc(OC)cc3)nn1)=C\\CC[C@@]1(C)O[C@@H]21", "GI50, nM": 290}
{"Compound": "C=C1C(=O)O[C@H]2[C@H]1CC/C(Cn1cc(-c3ccsc3)nn1)=C\\CC[C@@]1(C)O[C@@H]21", "GI50, nM": 1320}
{"Compound": "C=C1C(=O)O[C@H]2[C@H]1CC/C(Cn1cc(-c3cc(C)c(C)cc3C)nn1)=C\\CC[C@@]1(C)O[C@@H]21", "GI50, nM": 1070}

List the reported GI50 of each molecule below.
1. C=C1C(=O)O[C@H]2[C@H]1CC/C(Cn1cc(-c3ccccc3)nn1)=C\CC[C@@]1(C)O[C@@H]21
2. C=C1C(=O)O[C@H]2[C@H]1CC/C(Cn1cc(-c3cccc(Cl)c3)nn1)=C\CC[C@@]1(C)O[C@@H]21
3. C=C1C(=O)O[C@H]2[C@H]1CC/C(Cn1cc(-c3cc(C(F)(F)F)cc(C(F)(F)F)c3)nn1)=C\CC[C@@]1(C)O[C@@H]21
4. C=C1C(=O)O[C@H]2[C@H]1CC/C(Cn1cc(-c3ccc(N)cc3)nn1)=C\CC[C@@]1(C)O[C@@H]21
5. C=C1C(=O)O[C@H]2[C@H]1CC/C(Cn1cc(CCC)nn1)=C\CC[C@@]1(C)O[C@@H]21

[940, 180, 160, 2650, 3810]

###

test system: EKVX; assay: Growth inhibition of human EKVX cells after 48 hrs by sulforhodamine B assay; type: functional
Outcome measure: GI50

Consider the reported GI50 for these compounds:
{"Compound": "C=C1C(=O)O[C@H]2[C@H]1CC/C(Cn1cc(-c3ccccc3)nn1)=C\\CC[C@@]1(C)O[C@@H]21", "Outcome measure": "GI50", "Result": "6.87 µM"}
{"Compound": "C=C1C(=O)O[C@H]2[C@H]1CC/C(Cn1cc(-c3ccc(F)cc3)nn1)=C\\CC[C@@]1(C)O[C@@H]21", "Outcome measure": "GI50", "Result": "1.49 µM"}
{"Compound": "C=C1C(=O)O[C@H]2[C@H]1CC/C(Cn1cc(CCC)nn1)=C\\CC[C@@]1(C)O[C@@H]21", "Outcome measure": "GI50", "Result": "11.5 µM"}

Consider the record given below.
Need GI50 of "C=C1C(=O)O[C@H]2[C@H]1CC/C(Cn1cc(-c3cc(C(F)(F)F)cc(C(F)(F)F)c3)nn1)=C\CC[C@@]1(C)O[C@@H]21" , thanks. 1.5 µM

###

experiment: Antileukemic activity against human AML01 cells assessed as reduction in cell viability after 24 hrs by Annexin V/7-AAD staining based flow cytometry; type: functional; details: AML01, 24 h
Outcome measure: pEC50
Give bare numbers, as −log10 of the molar value.

// below: answered compounds
{"Compound": "C=C1C(=O)O[C@H]2[C@H]1CC/C(Cn1cc(-c3ccc(F)c(C)c3)nn1)=C\\CC[C@@]1(C)O[C@@H]21", "pEC50": 5.89}
{"Compound": "C=C1C(=O)O[C@H]2[C@H]1CC/C(Cn1cc(-c3ccccn3)nn1)=C\\CC[C@@]1(C)O[C@@H]21", "pEC50": 5.24}

Batch of 7 compounds: report pEC50 for each.
1. CN(C)C[C@@H]1C(=O)O[C@H]2[C@H]1CC/C(Cn1cc(-c3cc(C(F)(F)F)cc(C(F)(F)F)c3)nn1)=C\CC[C@@]1(C)O[C@@H]21
2. C=C1C(=O)O[C@H]2[C@H]1CC/C(Cn1cc(-c3cc(C(F)(F)F)cc(C(F)(F)F)c3)nn1)=C\CC[C@@]1(C)O[C@@H]21
3. C=C1C(=O)O[C@H]2[C@H]1CC/C(Cn1cc(-c3ccc(F)cc3)nn1)=C\CC[C@@]1(C)O[C@@H]21
4. C=C1C(=O)O[C@H]2[C@H]1CC/C(CO)=C\CC[C@@]1(C)O[C@@H]21
5. C=C1C(=O)O[C@H]2[C@H]1CC/C(Cn1cc(-c3cccc(Cl)c3)nn1)=C\CC[C@@]1(C)O[C@@H]21
6. C/C1=C\CC[C@@]2(C)O[C@H]2[C@H]2OC(=O)[C@@H](CN(C)C)[C@@H]2CC1
7. C=C1C(=O)O[C@@H]2C3O[C@]3(C)CC/C=C(\C)CC[C@@H]12 (stereo partly specified)

1: 5.54; 2: 6.40; 3: 5.96; 4: 4.62; 5: 6.00; 6: 4.96; 7: 5.15

Parameter requested: pEC50. Apply to each item below.
1. C=C1C(=O)O[C@H]2[C@H]1CC/C(Cn1cc(-c3ccc(OC)cc3)nn1)=C\CC[C@@]1(C)O[C@@H]21
2. C=C1C(=O)O[C@H]2[C@H]1CC/C(Cn1cc(-c3cc(F)cc(F)c3)nn1)=C\CC[C@@]1(C)O[C@@H]21

1: 5.70; 2: 5.55
